Taken from ChEMBL document CHEMBL5579892.

- Assay Remarks: Drug concentration in rat liver at 10 mg/kg, po measured after 24 hrs
- Format: ADME, organism-based
- Assay Context: read-out: Ct
Property Measured: concentration at 24 h (ng/mL)
Your answer is read as ng/mL, so omit the unit and give the number.

Incoming: Kindly indicate its recorded concentration at 24 h. Item: C[C@H](c1c[nH]c(=O)c2cc(F)c(F)cc12)N(C)C(=O)Nc1ccc(F)c(C#N)c1
Outgoing: 334

---

- Assay Remarks: Microsomal stability in human liver microsomes assessed as intrinsic clearance
- Assay type: ADME, Microsome
- Assay Context: read-out: CLH
Threshold 30 µL/min/mg. microsomal CLint below it: t. microsomal CLint at it or above: f.

Here are 6 compounds together with their reported answers.
compound=C[C@H](c1c[nH]c(=O)c2cc(F)c(F)cc12)N(C)C(=O)c1cc2cc(F)c(F)cc2[nH]1 class_label=t
compound="CC(c1c[nH]c(=O)c2ccccc12)N(C)C(=O)Nc1ccc(F)c(Cl)c1 (centres undefined)" class_label=f
compound=C[C@H](c1c[nH]c(=O)c2cc(F)c(F)cc12)N(C)C(=O)c1cc2ccccc2[nH]1 class_label=t
compound="CC(c1c[nH]c(=O)c2ccccc12)N(CCCO)C(=O)Nc1ccc(F)c(Cl)c1 (centres undefined)" class_label=f
compound=CCCN(C(=O)Nc1ccc(F)c(Cl)c1)[C@H](C)c1c[nH]c(=O)c2ccccc12 class_label=f
compound=C[C@H](c1c[nH]c(=O)c2cc(F)ccc12)N(C)C(=O)Nc1ccc(F)c(Cl)c1 class_label=t

Incoming: State whether 30 µL/min/mg exceeds microsomal CLint recorded for CC(C)CN(C(=O)Nc1ccc(F)c(Cl)c1)C(C)c1c[nH]c(=O)c2ccccc12 (centres undefined) .
Outgoing: f

Incoming: Determine whether this compound shows microsomal CLint lower than 30 µL/min/mg (ties excluded): C[C@H](c1c[nH]c(=O)c2cc(F)c(F)cc12)N(C)C(=O)[C@@H]1Cc2ccccc2N1
Outgoing: t
